Task for the reader: assign each of the following molecules its reported IC50.
- tested on: mGlyT-1b (Mus musculus, UniProt P28571)
- Construct: host or cells: Flp-in-CHO cells (vendor and catalogue number are those of the host cell line)
- Sequence (P28571 1-651 isoform P28571-2): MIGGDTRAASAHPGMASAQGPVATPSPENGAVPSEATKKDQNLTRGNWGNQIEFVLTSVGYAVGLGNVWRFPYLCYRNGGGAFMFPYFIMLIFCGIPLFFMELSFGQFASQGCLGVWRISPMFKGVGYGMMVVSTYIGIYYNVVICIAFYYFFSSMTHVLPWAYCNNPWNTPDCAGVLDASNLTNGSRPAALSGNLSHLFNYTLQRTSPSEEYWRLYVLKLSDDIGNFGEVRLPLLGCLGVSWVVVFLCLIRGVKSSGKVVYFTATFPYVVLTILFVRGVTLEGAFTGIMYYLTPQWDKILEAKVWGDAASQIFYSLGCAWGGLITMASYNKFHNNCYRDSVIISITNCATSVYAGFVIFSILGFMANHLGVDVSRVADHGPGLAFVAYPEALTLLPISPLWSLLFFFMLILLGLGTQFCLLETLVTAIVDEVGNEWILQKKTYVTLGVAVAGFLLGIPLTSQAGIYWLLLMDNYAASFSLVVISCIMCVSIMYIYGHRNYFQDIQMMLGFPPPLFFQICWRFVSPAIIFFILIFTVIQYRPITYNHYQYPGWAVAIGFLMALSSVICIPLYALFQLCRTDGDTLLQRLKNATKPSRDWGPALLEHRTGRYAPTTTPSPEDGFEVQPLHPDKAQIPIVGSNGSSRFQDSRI
- test protocol: Glycine Uptake Inhibition Assay (mGlyT-1b)
- Type: cell-based
- measurement setup: inhibition of [3H]-glycine uptake in Flp-in-CHO cells transfected with mGlyT-1b cDNA; 20 min preincubation at 22° C.; read-out: IC50 (μM) at GlyT-1
# value in µM; strip the unit string

Which IC50 value is on record for CC(Oc1ccc(S(C)(=O)=O)cc1C(=O)N1CCN(c2ncc(C(F)(F)F)s2)CC1)C(F)(F)F (stereo not shown) [Example 59] ?
0.098

Need IC50 of CS(=O)(=O)c1ccc(OCC(F)(F)C(F)(F)F)c(C(=O)N2CCN(c3ncc(C(F)(F)F)s3)CC2)c1 [Example 103] , thanks.
0.006

Endpoint output: IC50 of Cc1nc(N2CCN(C(=O)c3cc(S(C)(=O)=O)ccc3O[C@@H](C)C(F)(F)F)CC2)sc1C(F)(F)F [Example 80] . Value?
0.046

Requested read-out: IC50. Entry: Cc1nc(N2CCN(C(=O)c3cc(S(C)(=O)=O)ccc3OC(C)C)CC2)sc1C(F)(F)F [Example 79]
0.067

* * *

For each entry below, report its IC50 value.
- tested on: mGlyT-1b (Mus musculus, UniProt P28571)
- Construct: host or cells: Flp-in-CHO cells (vendor and catalogue number are those of the host cell line)
- test protocol: Glycine Uptake Inhibition Assay (mGlyT-1b)
- Assay type: cell-based
- measurement setup: inhibition of [3H]-glycine uptake in Flp-in-CHO cells transfected with mGlyT-1b cDNA; 20 min preincubation at 22° C.; read-out: IC50 (μM) at GlyT-1
Number only, in µM; omit the unit.

I'd like to know its IC50. The compound in question is Cc1sc(N2CCN(C(=O)c3cc(S(C)(=O)=O)ccc3OC(C)C(F)(F)F)CC2)nc1C(F)(F)F (stereo not drawn) [Example 55]
0.073

Using the record for C[C@@H](Oc1ccc(S(C)(=O)=O)cc1C(=O)N1CCN(c2ncc(C(F)(F)F)s2)CC1)C(F)(F)F [Example 68] , report its IC50.
0.082

Need IC50 of CC(C)(Oc1ccc(S(C)(=O)=O)cc1C(=O)N1CCN(c2ncc(C(F)(F)F)s2)CC1)C(F)(F)F [Example 66] , thanks.
0.061

May I ask what IC50 has been recorded for CC(Oc1ccc(S(C)(=O)=O)cc1C(=O)N1CCN(c2ncc(C#N)s2)CC1)C(F)(F)F (stereo not drawn) [Example 10] ?
0.082

GET /values?readout=IC50&item= CC(C)Sc1ccc(S(C)(=O)=O)cc1C(=O)N1CCN(c2ncc(C(F)(F)F)s2)CC1 [Example 84]
0.076

I'd like to know its IC50. The compound in question is CNS(=O)(=O)c1ccc(OC2CCCC2)c(C(=O)N2CCN(c3nnc(C(F)(F)F)s3)CC2)c1 [Example 101]
0.026

Endpoint output: IC50 of CS(=O)(=O)c1ccc(OC2CCCC2)c(C(=O)N2CCN(c3ncc(S(=O)(=O)c4ccccc4)s3)CC2)c1 [Example 30] . Value?
0.023

I have this compound here, CC(C)Oc1ccc(S(C)(=O)=O)cc1C(=O)N1CCN(c2ncc(S(=O)(=O)c3ccccc3)s2)CC1 [Example 4] , and I need its recorded IC50.
0.061

For C[C@H](Oc1ccc(S(C)(=O)=O)cc1C(=O)N1CCN(c2ncc(C(F)(F)F)s2)CC1)C(F)(F)F [Example 67] , what is its reported IC50?
0.046

// IC50 lookup, key: CNS(=O)(=O)c1ccc(OC2CCCC2)c(C(=O)N2CCN(c3ncc(C#N)s3)CC2)c1 [Example 99]
0.021

What value of IC50 has been recorded for this entry: CCCCS(=O)(=O)c1cnc(N2CCN(C(=O)c3cc(S(C)(=O)=O)ccc3OC3CCCC3)CC2)s1 [Example 41]
0.018

Consider the compound shown here: CC[C@H](C)Oc1ccc(S(C)(=O)=O)cc1C(=O)N1CCN(c2ncc(C(F)(F)F)s2)CC1 [Example 78] What is its recorded IC50?
0.089

Fill in: IC50 of CS(=O)(=O)c1ccc(OCC2CCC2)c(C(=O)N2CCN(c3ncc(C#N)s3)CC2)c1 [Example 14] is ___
0.083

Can you look up the measured IC50 of C[C@H](Oc1ccc(S(C)(=O)=O)cc1C(=O)N1CCN(c2nnc(C(F)(F)F)s2)CC1)C(F)(F)F [Example 93] for me?
0.075

# lookup: IC50 of CC(C)(C)COc1ccc(S(C)(=O)=O)cc1C(=O)N1CCN(c2ncc(C#N)s2)CC1 [Example 19]
0.043

Taken from patent US7220744B2.
